tested-target: T1, human C1s (human, UniProt P09871 16-688)
T1 construct: also called hC1s; serum-derived human C1s (CompTech)
T1 sequence: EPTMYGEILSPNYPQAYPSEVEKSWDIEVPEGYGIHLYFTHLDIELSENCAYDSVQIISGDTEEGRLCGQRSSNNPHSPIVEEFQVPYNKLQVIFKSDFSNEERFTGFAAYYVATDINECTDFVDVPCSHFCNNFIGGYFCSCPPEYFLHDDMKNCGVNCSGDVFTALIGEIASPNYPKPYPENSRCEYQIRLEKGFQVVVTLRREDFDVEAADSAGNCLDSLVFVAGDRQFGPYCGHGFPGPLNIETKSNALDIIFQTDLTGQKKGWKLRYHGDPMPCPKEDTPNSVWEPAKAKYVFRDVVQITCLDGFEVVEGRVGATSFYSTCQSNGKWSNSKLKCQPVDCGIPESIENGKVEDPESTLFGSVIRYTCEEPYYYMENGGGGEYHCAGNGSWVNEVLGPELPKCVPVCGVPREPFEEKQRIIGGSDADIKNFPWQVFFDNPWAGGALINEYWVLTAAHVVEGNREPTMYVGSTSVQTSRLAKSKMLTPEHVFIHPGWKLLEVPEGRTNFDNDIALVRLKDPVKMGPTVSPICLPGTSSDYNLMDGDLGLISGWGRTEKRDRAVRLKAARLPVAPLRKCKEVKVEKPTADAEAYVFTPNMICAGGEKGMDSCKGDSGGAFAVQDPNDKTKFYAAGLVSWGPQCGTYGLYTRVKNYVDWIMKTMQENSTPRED
assay-name: SPR, Ab captured; pH 7.4, 1.2 mM Ca
reported-endpoint: Kd (nM)
Just the number in nM, nothing appended.

Here is how some binders turned out for Kd.
C1_IPN92H0279-SG4GK/IPN93L0091-SK1 (antibody, human IgG4 S228P, kappa, name in Kabat numbering, V domains shown, also called IPN92H0279/IPN93L0091) VH: EVMLVESGGGLVKPGGSLRLSCAASGFTFSNYAMSWVRQAPGKGLEWVATISSGGSHTYELDSVKERFTISRDNSKDTLYLQMNSLRAEDTALYYCARLFTKHAMDYWGQGTLVTVSS VL: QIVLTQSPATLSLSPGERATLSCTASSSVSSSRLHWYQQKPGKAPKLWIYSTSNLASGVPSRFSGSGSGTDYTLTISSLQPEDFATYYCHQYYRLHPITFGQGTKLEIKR    0.686
C1_IPN92H0282-SG4GK/IPN93L0091-SK1 (antibody, human IgG4 S228P, kappa, name in Kabat numbering, V domains shown, also called IPN92H0282/IPN93L0091) VH: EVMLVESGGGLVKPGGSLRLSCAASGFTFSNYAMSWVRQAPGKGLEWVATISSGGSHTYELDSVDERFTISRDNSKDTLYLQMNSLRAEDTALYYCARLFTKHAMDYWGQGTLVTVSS VL: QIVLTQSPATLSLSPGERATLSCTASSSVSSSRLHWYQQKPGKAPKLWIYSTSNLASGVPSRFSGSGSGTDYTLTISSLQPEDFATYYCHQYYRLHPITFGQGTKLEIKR    1.96
C1_IPN92H0061-SG4GK/IPN93L0024-SK1 (antibody, human IgG4 S228P, kappa, name in Kabat numbering, V domains shown, also called IPN92H0061/IPN93L0024) VH: EVMLVESGGGLVKPGGSLRLSCAASGFTKSNYAMSWVRQAPGKGLEWVATISSGGSHTYYLDSVKGRFTISRDNSKDTLYLQMNSLRAEDTALYYCARLFTGHAMDYWGQGTLVTVSS VL: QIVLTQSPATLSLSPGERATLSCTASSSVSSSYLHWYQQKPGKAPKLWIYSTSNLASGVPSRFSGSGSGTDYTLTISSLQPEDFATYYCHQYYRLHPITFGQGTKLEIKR    6.85
C1_IPN92H0147-SG4GK/IPN93L0024-SK1 (antibody, human IgG4 S228P, kappa, name in Kabat numbering, V domains shown, also called IPN92H0147/IPN93L0024) VH: EVMLVESGGGLVKPGGSLRLSCAASGFTFSNYAMSWVRQAPGKGLEWVATISSGGSHDYYLDSVKGRFTISRDNSKDTLYLQMNSLRAEDTALYYCARLFTGHAMDYWGQGTLVTVSS VL: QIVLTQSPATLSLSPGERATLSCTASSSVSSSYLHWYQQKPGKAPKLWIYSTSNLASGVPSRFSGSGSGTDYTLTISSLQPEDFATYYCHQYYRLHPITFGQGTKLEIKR    2.05
C1_IPN92H0194-SG4GK/IPN93L0024-SK1 (antibody, human IgG4 S228P, kappa, name in Kabat numbering, V domains shown, also called IPN92H0194/IPN93L0024) VH: EVMLVESGGGLVKPGGSLRLSCAASGFTFSNYAMSWVRQAPGKGLEWVATISSGGSHTYYLDSVKERFTISRDNSKDTLYLQMNSLRAEDTALYYCARLFTGHAMDYWGQGTLVTVSS VL: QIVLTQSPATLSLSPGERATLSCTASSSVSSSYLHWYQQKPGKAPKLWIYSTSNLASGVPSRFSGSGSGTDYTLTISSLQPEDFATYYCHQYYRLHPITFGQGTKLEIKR    0.885
C1_IPN92H0144-SG4GK/IPN93L0024-SK1 (antibody, human IgG4 S228P, kappa, name in Kabat numbering, V domains shown, also called IPN92H0144/IPN93L0024) VH: EVMLVESGGGLVKPGGSLRLSCAASGFTFSNYAMSWVRQAPGKGLEWVATISSGGSKTYYLDSVKGRFTISRDNSKDTLYLQMNSLRAEDTALYYCARLFTGHAMDYWGQGTLVTVSS VL: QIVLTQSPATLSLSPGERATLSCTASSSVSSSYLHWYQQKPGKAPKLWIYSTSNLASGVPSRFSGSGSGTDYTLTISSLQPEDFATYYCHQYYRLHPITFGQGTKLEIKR    3.68
C1_IPN92H0281-SG4GK/IPN93L0091-SK1 (antibody, human IgG4 S228P, kappa, name in Kabat numbering, V domains shown, also called IPN92H0281/IPN93L0091) VH: EVMLVESGGGLVKPGGSLRLSCAASGFTFSNYAMSWVRQAPGKGLEWVATISSGGSKTYELDSVDERFTISRDNSKDTLYLQMNSLRAEDTALYYCARLFTKHAMDYWGQGTLVTVSS VL: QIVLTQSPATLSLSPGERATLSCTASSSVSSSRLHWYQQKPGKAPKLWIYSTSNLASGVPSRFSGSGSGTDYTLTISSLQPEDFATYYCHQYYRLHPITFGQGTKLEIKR    4.72
C1_IPN92H0145-SG4GK/IPN93L0024-SK1 (antibody, human IgG4 S228P, kappa, name in Kabat numbering, V domains shown, also called IPN92H0145/IPN93L0024) VH: EVMLVESGGGLVKPGGSLRLSCAASGFTFSNYAMSWVRQAPGKGLEWVATISSGGSRTYYLDSVKGRFTISRDNSKDTLYLQMNSLRAEDTALYYCARLFTGHAMDYWGQGTLVTVSS VL: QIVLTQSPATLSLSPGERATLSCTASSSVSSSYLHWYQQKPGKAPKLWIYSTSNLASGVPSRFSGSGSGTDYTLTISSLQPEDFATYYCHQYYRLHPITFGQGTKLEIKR    4.71

Exercise: Given the binder C1_IPN92H0261-SG4GK/IPN93L0091-SK1 (antibody, human IgG4 S228P, kappa, name in Kabat numbering, V domains shown, also called IPN92H0261/IPN93L0091) VH: EVMLVESGGGLVKPGGSLRLSCAASGFTFSNYAMSWVRQAPGKGLEWVATISSGGSHTYELDSVKGRFTISRDNSKDTLYLQMNSLRAEDTALYYCARLFTKHAMDYWGQGTLVTVSS VL: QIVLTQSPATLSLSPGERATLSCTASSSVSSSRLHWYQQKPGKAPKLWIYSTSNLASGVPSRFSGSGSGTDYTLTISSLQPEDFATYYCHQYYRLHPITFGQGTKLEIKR , write its reported Kd.
Key: 0.985

Exercise: Given the binder C1_IPN92H0253-SG4GK/IPN93L0024-SK1 (antibody, human IgG4 S228P, kappa, name in Kabat numbering, V domains shown, also called IPN92H0253/IPN93L0024) VH: EVMLVESGGGLVKPGGSLRLSCAASGFTFSNYAMSWVRQAPGKGLEWVATISSGGSHTYYLDSVKGRFTISRDNSKDTLYLQMNSLRAEDTALYYCARLFTGHAMKYWGQGTLVTVSS VL: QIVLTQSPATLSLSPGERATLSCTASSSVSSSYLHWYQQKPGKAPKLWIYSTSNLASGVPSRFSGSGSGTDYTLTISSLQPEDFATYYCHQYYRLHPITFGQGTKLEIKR , write its reported Kd.
Key: 0.121
